Test system: rodent lifetime carcinogenesis bioassay, tumor incidence TD50
METHOD: carcinogenic potency in animals, long-term in vivo studies, CPDB compilation (AID 1745844)
CONDITION CONTEXT: rat; strain Buffalo; females; in feed; site: all sites; lesion: leukemia, indeterminate type; dosed 47 weeks; study length 88 weeks

[
  {
    "STRUCTURE NOTATION": "CC(=O)Nc1cccc2c1Cc1ccccc1-2",
    "TD50 (mg/kg/day)": 54.8
  }
]

---

System: rodent lifetime carcinogenesis bioassay, tumor incidence TD50
METHOD: carcinogenic potency in animals, long-term in vivo studies, CPDB compilation (AID 1745844)
CONDITION CONTEXT: mouse; strain CF-1; females; in feed; site: liver; lesion: several types; types named in the paper; dosed 108 weeks; study length 128 weeks

[
  {
    "STRUCTURE NOTATION": "ClC1=C(Cl)[C@]2(Cl)[C@@H]3[C@@H]4C[C@@H]([C@H]5O[C@@H]45)[C@@H]3[C@@]1(Cl)C2(Cl)Cl",
    "TD50": "1.49 mg/kg/day"
  }
]

---

System: rodent lifetime carcinogenesis bioassay, tumor incidence TD50
METHOD: carcinogenic potency in animals, long-term in vivo studies, CPDB compilation (AID 1745844)
CONDITION CONTEXT: rat; strain Sprague-Dawley; males; in feed; site: any site (literature study); lesion: several types; types named in the paper; dosed 50 weeks; study length 52 weeks

[
  {
    "STRUCTURE NOTATION": "O=[N+]([O-])c1ccc(-c2nc(N(CCO)CCO)c3ccccc3n2)s1",
    "TD50, mg/kg/day": 1.1
  }
]

---

Test system: rodent lifetime carcinogenesis bioassay, tumor incidence TD50
METHOD: carcinogenic potency in animals, long-term in vivo studies, CPDB compilation (AID 1745844)
CONDITION CONTEXT: rat; strain BD VI; females; by gavage; site: any site (literature study); lesion: malignant tumor; dosed 101 weeks; study length 101 weeks
Calls of active or inactive are those of the source. How the calls were made is not given here.

[
  {
    "STRUCTURE NOTATION": "CN(N=O)c1ccncc1",
    "TD50": "26.8 mg/kg/day (inactive)"
  }
]

---

Tested on: rodent lifetime carcinogenesis bioassay, tumor incidence TD50
METHOD: carcinogenic potency in animals, long-term in vivo studies, CPDB compilation (AID 1745844)
CONDITION CONTEXT: mouse; strain B6C3F1; males; in feed; site: urinary bladder; lesion: papilloma; dosed 70 weeks; study length 84 weeks

[
  {
    "COMPOUND": "CCOc1ccc(NC(=O)CC(C)O)cc1 (stereo unspecified)",
    "TD50, mg/kg/day": 46400
  }
]

---

Tested on: rodent lifetime carcinogenesis bioassay, tumor incidence TD50
METHOD: carcinogenic potency in animals, long-term in vivo studies, CPDB compilation (AID 1745844)
CONDITION CONTEXT: mouse; strain B6C3F1; males; by gavage; site: adrenal medulla + liver; lesion: pheochromocytoma, benign + hepatocellular adenoma + hepatocellular carcinoma; dosed 104 weeks; study length 105 weeks

[
  {
    "STRUCTURE NOTATION": "c1ccoc1",
    "TARGET UNDER TEST": "rodent lifetime carcinogenesis bioassay, tumor incidence TD50",
    "TD50 / mg/kg/day": 3.6
  }
]

---

Test system: rodent lifetime carcinogenesis bioassay, tumor incidence TD50
METHOD: carcinogenic potency in animals, long-term in vivo studies, CPDB compilation (AID 1745844)
CONDITION CONTEXT: mouse; strain C57BL/He; both sexes; in feed; site: liver; lesion: hepatoma; dosed 104 weeks; study length 104 weeks
The source made the active and inactive calls. How the calls were made is not given here.

[
  {
    "STRUCTURE NOTATION": "Cc1cc(C)c(S(=O)(=O)O)cc1N=Nc1cc(S(=O)(=O)O)c2ccccc2c1O",
    "TD50": "57100 mg/kg/day (inactive)"
  }
]

---

System: rodent lifetime carcinogenesis bioassay, tumor incidence TD50
METHOD: carcinogenic potency in animals, long-term in vivo studies, CPDB compilation (AID 1745844)
CONDITION CONTEXT: rat; strain Sprague-Dawley; females; i.p.; site: mammary gland + peritoneum; lesion: adenocarcinoma, NOS + cystadenocarcinoma, NOS + cystadenoma, NOS + fibroadenoma + papillary adenocarcinoma + fibrosarcoma + mesothel; dosed 52 weeks; study length 80 weeks

[
  {
    "STRUCTURE NOTATION": "COc1cc2c(c3c1c(=O)c1ccccc1n3C)C=CC(C)(C)O2",
    "TD50, mg/kg/day": 0.873
  }
]

---

System: rodent lifetime carcinogenesis bioassay, tumor incidence TD50
METHOD: carcinogenic potency in animals, long-term in vivo studies, CPDB compilation (AID 1745844)
CONDITION CONTEXT: rat; strain ACI; males; in drinking water; site: liver; lesion: liver-cell adenoma; dosed 58 weeks; study length 58 weeks
VALUE TYPE: TD50

[
  {
    "STRUCTURE NOTATION": "C[C@@H]1C[C@]2(O[C@@H]2C)C(=O)O[C@@H]2CCN(C)C/C=C(/COC(=O)[C@]1(C)O)C2=O",
    "OBSERVED VALUE": "1.16 mg/kg/day"
  }
]

---

Test system: rodent lifetime carcinogenesis bioassay, tumor incidence TD50
METHOD: carcinogenic potency in animals, long-term in vivo studies, CPDB compilation (AID 1745844)
CONDITION CONTEXT: rat; strain Fischer 344; females; by gavage; site: multiple organs; lesion: lymphocytic leukemia + mononuclear-cell leukemia; dosed 100 weeks; study length 104 weeks
VALUE TYPE: TD50 (mg/kg/day)

[
  {
    "STRUCTURE NOTATION": "CC(C)=CCl",
    "UNIT ANNOTATION": "mg/kg/day",
    "OBSERVED VALUE": 170
  }
]

---

Test system: rodent lifetime carcinogenesis bioassay, tumor incidence TD50
METHOD: carcinogenic potency in animals, long-term in vivo studies, CPDB compilation (AID 1745844)
CONDITION CONTEXT: mouse; strain B6C3F1; females; in drinking water; site: liver; lesion: hyperplastic nodule; dosed 104 weeks; study length 104 weeks
Measured TD50 accompanies every entry in the list below.
VALUE TYPE: TD50

[
  {
    "COMPOUND": "O=C(O)C1C2C=CC(C2)C1(C(=O)O)[N+](=O)[O-] (configuration not stated)",
    "VALUE TYPE": "TD50",
    "OBSERVED VALUE": "3190 mg/kg/day"
  },
  {
    "COMPOUND": "[Na+]",
    "VALUE TYPE": "TD50",
    "OBSERVED VALUE": "1.33e+06 mg/kg/day"
  }
]

---

Test system: rodent lifetime carcinogenesis bioassay, tumor incidence TD50
METHOD: carcinogenic potency in animals, long-term in vivo studies, CPDB compilation (AID 1745844)
CONDITION CONTEXT: rat; strain Charles River CD (Sprague-Dawley); males; inhaled; site: nasal cavity; lesion: several types; types named in the paper; dosed 82 weeks; study length 104 weeks
VALUE TYPE: TD50

[
  {
    "STRUCTURE NOTATION": "ClCC=CCCl",
    "VALUE TYPE": "TD50",
    "OBSERVED VALUE": "0.467 mg/kg/day"
  }
]

---

Tested on: rodent lifetime carcinogenesis bioassay, tumor incidence TD50
METHOD: carcinogenic potency in animals, long-term in vivo studies, CPDB compilation (AID 1745844)
CONDITION CONTEXT: rat; strain Wistar; males; inhaled; site: extrahepatic tissue; lesion: angiosarcoma; dosed 52 weeks; study length 125 weeks
VALUE TYPE: TD50 (mg/kg/day)

[
  {
    "STRUCTURE NOTATION": "C=CCl",
    "UNIT ANNOTATION": "mg/kg/day",
    "OBSERVED VALUE": 8490
  }
]

---

Tested on: rodent lifetime carcinogenesis bioassay, tumor incidence TD50
METHOD: carcinogenic potency in animals, long-term in vivo studies, CPDB compilation (AID 1745844)
CONDITION CONTEXT: mouse; strain B6C3F1; males; by gavage; site: stomach; lesion: squamous-cell carcinoma + squamous-cell papilloma; dosed 67 weeks; study length 91 weeks

[
  {
    "STRUCTURE NOTATION": "C=CCCl",
    "TARGET UNDER TEST": "rodent lifetime carcinogenesis bioassay, tumor incidence TD50",
    "TD50": "727 mg/kg/day"
  }
]

---

Test system: rodent lifetime carcinogenesis bioassay, tumor incidence TD50
METHOD: carcinogenic potency in animals, long-term in vivo studies, CPDB compilation (AID 1745844)
CONDITION CONTEXT: rat; strain Fischer 344; males; in drinking water; site: adrenal medulla; lesion: pheochromocytoma benign, bilateral + pheochromocytoma, benign; dosed 88 weeks; study length 92 weeks
VALUE TYPE: TD50

[
  {
    "STRUCTURE NOTATION": "COc1cc(-c2ccc(N)c(OC)c2)ccc1N",
    "VALUE TYPE": "TD50",
    "OBSERVED VALUE": "2.06 mg/kg/day"
  }
]

# credit: PubChem BioAssay AID1745844
